Biological target: P2X2/3 (Homo sapiens, UniProt P56373+Q9UBL9)
Sequence (Q9UBL9 whole entry): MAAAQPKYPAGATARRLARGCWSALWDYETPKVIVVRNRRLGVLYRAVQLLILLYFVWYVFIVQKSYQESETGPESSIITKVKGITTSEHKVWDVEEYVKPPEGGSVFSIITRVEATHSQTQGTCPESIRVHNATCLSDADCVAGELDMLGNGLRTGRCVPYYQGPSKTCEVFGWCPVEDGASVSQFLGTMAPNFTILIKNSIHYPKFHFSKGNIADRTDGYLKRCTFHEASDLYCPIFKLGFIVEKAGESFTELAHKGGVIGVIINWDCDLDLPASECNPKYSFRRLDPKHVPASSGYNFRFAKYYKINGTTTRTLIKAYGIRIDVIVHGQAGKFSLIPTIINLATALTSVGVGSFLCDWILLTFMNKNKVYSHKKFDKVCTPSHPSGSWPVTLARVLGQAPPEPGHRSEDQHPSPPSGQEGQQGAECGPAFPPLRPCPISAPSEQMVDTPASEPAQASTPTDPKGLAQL
Sequence (P56373 whole entry): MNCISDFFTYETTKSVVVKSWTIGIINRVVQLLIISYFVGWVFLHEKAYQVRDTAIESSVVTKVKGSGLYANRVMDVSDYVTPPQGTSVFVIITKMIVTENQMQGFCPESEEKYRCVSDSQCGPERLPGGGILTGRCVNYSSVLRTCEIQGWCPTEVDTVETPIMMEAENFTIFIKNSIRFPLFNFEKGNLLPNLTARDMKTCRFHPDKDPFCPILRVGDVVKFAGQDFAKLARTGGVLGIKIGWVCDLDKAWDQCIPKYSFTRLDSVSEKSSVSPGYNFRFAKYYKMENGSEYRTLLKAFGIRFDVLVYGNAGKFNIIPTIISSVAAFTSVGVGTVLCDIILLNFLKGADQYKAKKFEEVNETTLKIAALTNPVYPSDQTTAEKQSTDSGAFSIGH
Assay: P2X2/3 FLIPR intracellular calcium assay
Settings: agonist at EC75, species (human or rat) not given
pIC50: −log10 of the molar value.
Examples of compounds with documented pIC50 follow.

Quick note, pIC50 for COc1ccc(CNC(=O)c2cc(-n3nncc3C(F)F)c3ncc(-c4ccc(C)s4)n3c2)cn1 landed at 7.00 to 9.00

Next:
Quick note, pIC50 for Cc1ccc(CNC(=O)c2cc(-n3nncc3C(F)(F)F)c3ncc(-c4ccc(C)s4)n3c2)cn1 landed at 7.00 to 9.00

Quick note, pIC50 for Cc1ncc(CNC(=O)c2cc(-n3nnnc3C(F)F)c3ncc(-c4ncc(C)s4)n3c2)cn1 landed at 7.00 to 9.00

Quick note, pIC50 for Cc1noc(C)c1-c1cc(C(=O)N[C@@H](C)c2nnc[nH]2)cn2c(-c3ccc(Cl)s3)cnc12 landed at 7.00 to 9.00

###

Molecular target: P2X3 (UniProt P56373)
Assay: P2X3 FLIPR intracellular calcium assay
Conditions: agonist at EC75, species (human or rat) not given
pIC50: −log10 of the molar value.
Examples of compounds with documented pIC50 follow.

Take a look at these entries with their results.
Quick note, pIC50 for Cc1ncc(CNC(=O)c2cc(-n3nncc3C(C)C)c3ncc(-c4ccc(C)s4)n3c2)cn1 [Example 40] landed at < 5.00

Quick note, pIC50 for CCn1nccc1-c1cc(C(=O)N[C@@H](C)c2nnc[nH]2)cn2c(-c3ccc(C)s3)cnc12 [Example 103] landed at 7.00 to 9.00

Quick note, pIC50 for Cc1ccc(-c2cnc3c(N4CCC(C)(C(N)=O)CC4)cc(C(=O)N[C@@H](C)c4nnc[nH]4)cn23)s1 [Example 12] landed at 7.00 to 9.00

Quick note, pIC50 for Cc1ccc(-c2cnc3c(Nc4ccc(F)cc4)cc(C(=O)N[C@@H](C)c4nnc[nH]4)cn23)s1 [Example 95] landed at 7.00 to 9.00

Quick note, pIC50 for Cc1nnc([C@@H](C)NC(=O)c2cc(-n3nnnc3C(F)F)c3ncc(-c4ccc(C)s4)n3c2)o1 [Example 180] landed at 7.00 to 9.00

Next:
Quick note, pIC50 for COC1CCN(c2cc(C(=O)N[C@@H](C)c3nnc[nH]3)cn3c(-c4ccc(C)s4)cnc23)C1 (stereo partly drawn) [Example 138] landed at 7.00 to 9.00

Quick note, pIC50 for Cc1ncc(CNC(=O)c2cc(-n3nncc3CC(F)(F)F)c3ncc(-c4ncc(C)s4)n3c2)cn1 [Example 82] landed at 7.00 to 9.00

Quick note, pIC50 for Cc1ccc(-c2cnc3c(NC4CCCCC4)cc(C(=O)N[C@@H](C)c4nnc[nH]4)cn23)s1 [Example 121] landed at 6.00 to 7.00

Quick note, pIC50 for Cc1ccc(CNC(=O)c2cc(-c3cnn(C)c3)c3ncc(-c4ccc(C)s4)n3c2)cn1 [Example 98] landed at 5.00 to 6.00

Quick note, pIC50 for Cc1ccc(-c2cnc3c(-n4nncc4C(C)(C)C)cc(C(=O)N[C@@H](C)c4nnc[nH]4)cn23)s1 [Example 46] landed at 7.00 to 9.00

Quick note, pIC50 for Cc1ncc([C@@H](C)NC(=O)c2cc(-n3nncc3C(F)F)c3ncc(-c4ncc(C)s4)n3c2)cn1 [Example 84] landed at 7.00 to 9.00

Quick note, pIC50 for CCCSc1cnc2c(N3CCC(C)CC3)cc(C(=O)N[C@@H](C)c3nnc[nH]3)cn12 [Example 10] landed at 6.00 to 7.00

Quick note, pIC50 for CC[C@H](NC(=O)c1cc(-c2c(C)noc2C)c2ncc(-c3ccc(C)s3)n2c1)c1nnc[nH]1 [Example 108] landed at 7.00 to 9.00

Quick note, pIC50 for CCc1nnc(-c2cc(C(=O)N[C@@H](C)c3nnc[nH]3)cn3c(-c4ccc(C)s4)cnc23)o1 [Example 1] landed at 6.00 to 7.00

Quick note, pIC50 for Cc1ccc(-c2cnc3c(-n4nncc4C(C)(F)F)cc(C(=O)N[C@@H](C)c4nnc[nH]4)cn23)s1 [Example 70] landed at 7.00 to 9.00
